Kindly state fluorescence slope for each of the entries shown.
# TEST_SYSTEM: Voltage-gated potassium channel subunit beta-2 (Rattus norvegicus) (UniProt P62483)
# Sequence (P62483 whole entry, looked up): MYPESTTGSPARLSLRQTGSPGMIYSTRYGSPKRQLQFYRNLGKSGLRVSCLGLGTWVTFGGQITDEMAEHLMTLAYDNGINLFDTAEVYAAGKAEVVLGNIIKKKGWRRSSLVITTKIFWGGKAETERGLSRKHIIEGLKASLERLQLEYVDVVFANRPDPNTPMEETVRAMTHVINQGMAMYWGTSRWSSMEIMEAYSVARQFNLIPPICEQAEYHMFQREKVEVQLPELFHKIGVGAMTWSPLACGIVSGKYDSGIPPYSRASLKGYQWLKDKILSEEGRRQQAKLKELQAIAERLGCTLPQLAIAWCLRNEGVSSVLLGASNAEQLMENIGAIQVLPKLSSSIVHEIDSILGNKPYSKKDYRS
# TEST_NAME: inhibitors of rat Kvbeta2 reductase activity – biochemical, NADPH fluorescence, primary screen (AID 622);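 further: slope of raw intensity against log time taken from 70 to 1610 s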
# MEASUREMENT_CONDITIONS: recombinant KvBeta, 4-cyanobenzaldehyde reduction, at 10 µM, hits give high values
Hey, just send me the number, nothing else.

# input Specify measured fluorescence slope for CCOC(=O)N1CCC(Nc2ncnc3c2cnn3-c2ccc(C)cc2C)CC1 .
# output -0.529

# input Tell us which fluorescence slope value is on record for CCCOc1ccc(S(=O)(=O)NCCCN2CCOCC2)c2ccccc12
# output -0.418

# input # return recorded fluorescence slope for entry CC(=O)Nc1ccc(S(=O)(=O)NCC2CCC(C(=O)NCCCN3CCCC3=O)CC2)cc1 (stereo unspecified)
# output -0.484

# input Supply recorded fluorescence slope for O=C1CN(c2nc3ccccc3n3cnnc23)CC(=O)N1CCc1ccccc1 here.
# output -0.588

# input Fill in reported fluorescence slope for this entry: O=C(NC1(C(=O)NC2CCCCC2)CCCCC1)c1ccc2c(c1)OCO2
# output -0.524

# input Read the entry CC1=Nn2c(nnc2-c2ccccn2)SC1 and write its reported fluorescence slope.
# output -0.443

# input Look up and state reported fluorescence slope for CC1=CCC2C(=O)N(c3nc(C)cc(C)n3)C(=O)C2C1 (stereo unspecified)
# output -0.53

# input Item S=C(c1cccs1)N1CCCC1 : provide fluorescence slope
# output -0.421

# input Output measured fluorescence slope for this item: CCOC(=O)c1sc(NC(=O)CSc2nnc3c4ccccc4n(CC)c3n2)nc1C
# output -0.333

# input Given COc1cccc(C2C(C(=O)c3ccc(C)o3)=C(O)C(=O)N2CCCN(C)C)c1 (stereo unspecified) , respond with its fluorescence slope.
# output -0.592

# input Identify fluorescence slope associated with the molecule Cc1ccc(NC(=O)c2ccco2)cc1NC(=O)CSc1nnc(-c2cccs2)n1C
# output -0.394

###

# TEST_NAME: endothelial E-selectin expression blockers – imaging, HUVEC, immunofluorescence, MLSMR starter and 10KST1 sets, primary screen (AID 487);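 further: signal is fraction of cell area covered by stained E-selectin grains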
# MEASUREMENT_CONDITIONS: HUVEC TNFalpha-induced E-selectin immunofluorescence imaging, at 2 µM; hits give high values
METRIC_NAME: inhibition (%)
Respond numerically; units are % and should not be typed.

# input Return the recorded inhibition value; entry: COc1ccc(OCC(=O)N2CCN(C(=O)Cc3ccccc3)CC2)cc1
# output -14.3

# input Answer with the recorded inhibition for the compound listed here: CC(C)C[C@H](NC(=O)Nc1cccc(C(F)(F)F)c1)C(=O)O
# output -25.5

# input Tell us which inhibition value is on record for Cc1ccc(NC(=O)CSc2nnc(-c3ccncc3)n2C)cc1C
# output -44.4

# input Query inhibition for Cc1ccc(-c2nnc3c4ccccc4c(C)nn23)cc1NC(=O)c1ccco1
# output -106

# input Give the measured inhibition for COC(=O)c1cc(Br)c(=O)n(-c2ccc(OC)cc2)c1
# output 25.8

# input Entry CCN(CC)C(=O)C1=C(C)Nc2nnnn2C1c1cccnc1 (stereo not given) needs its inhibition filled in; supply it.
# output -55.9

# input Report inhibition, nothing else, for this compound: Cc1cccc(C2CC(c3ccc(Cl)cc3)Nc3nc(N)nn32)c1 (stereo not given)
# output -0.5

# input Output measured inhibition for this item: Cc1nc2ccc(S(=O)(=O)NCC(=O)N3CCCCC3)cc2s1
# output 27.3

# input Find the measured inhibition of CCCN(Cc1cc2cc(C)ccc2[nH]c1=O)C(=O)c1cccc(OC)c1 and report it.
# output -74

# input Input COC(=O)c1ccc2c(c1)C(=O)N(C1CCCCC1)C2=O , output reported inhibition.
# output -9.6

# input Please supply the value of reported inhibition for the item Cc1ccccc1-c1nc(CN2CCC(C(=O)NC3CCN(Cc4ccccc4)CC3)CC2)c(C)o1
# output 13

# input Read the entry COc1ccc(-c2noc(CCCC(=O)O)n2)cc1 and write its reported inhibition.
# output -54.3

# input Give me measured inhibition, please, for this compound: CN(CC(=O)Nc1ccc2c(c1)OCCO2)S(=O)(=O)c1ccc(Br)s1
# output -21

# input State, in one line, measured inhibition of COc1cccc(NC(=O)COC(=O)c2cccnc2)c1
# output -15.5

# input Identify inhibition associated with the compound COc1cc2c(c(OC)c1)C(c1ccncc1)CC(=O)N2 (stereo not given)
# output -42.5

# input Note inhibition for the compound shown: CN1CCN(C(=O)c2ccc3c(=O)n(CCc4ccccc4)c(=S)[nH]c3c2)CC1
# output -44.1

# input Please indicate inhibition recorded for O=C(C1CCC(CNc2c(N3CCCCC3)c(=O)c2=O)CC1)N1CCc2ccccc2C1 (stereo not given)
# output 44

# input Look up and report measured inhibition for this entry: CC(C)CCNC(=O)C(C)N(Cc1ccc(F)cc1)C(=O)c1ccc(CN2CCCCC2)o1 (stereo not given)
# output 2.1

# input Identify the reported inhibition for the following entry. Nc1ncnc(Nc2ccccc2C(F)(F)F)n1
# output -8

# input Query inhibition for Cc1ccccc1C(=O)NC1CCN(Cc2nnnn2CCc2ccccc2)CC1
# output 0.8

# input Entry O=C(CCn1c(=S)[nH]c2ccccc2c1=O)NCC1CCCO1 (stereo not given) needs its inhibition filled in; supply it.
# output 8

# input Please look at this compound and report its inhibition: CCOC(=O)c1ccc(NC(=O)Cn2cc3c(n2)CCC(C)C3)cc1 (stereo not given)
# output -6

# input Note inhibition for the compound shown: CCOC(=O)Cn1nc(-c2ccc(C)cc2)ccc1=O
# output -42.9

# input Supply reported inhibition belonging to this compound: O=C(C1CCCN(S(=O)(=O)c2cnc[nH]2)C1)N1CC(=O)N(CCc2ccccc2)C(=O)C1 (stereo not given)
# output -124

# input Report inhibition for CCOc1ccc(-c2nnc3sc(-c4c(OC)cccc4OC)nn23)cc1
# output -65.6

# input Look up inhibition of Cn1c(=O)c2c([nH]c(=O)n2C)n(C)c1=O and report it.
# output 16.9

# input Using known records, supply inhibition for Cc1cc(=O)oc2cc(OCC#N)ccc12
# output -66.4

# input Return value of inhibition for input CCN(CC)CCNC(=O)c1ccc(CS(=O)(=O)c2ccc(Br)cc2)o1 , no commentary.
# output 21.7

# input Read off the recorded inhibition for Cn1c(Cc2ccccc2)nnc1SCC(=O)N1CCOCC1
# output -74.1

# input Answer with reported inhibition of COc1cc(C2N=C(c3ccccc3)NO2)cc(Br)c1O (stereo not given)
# output -121

# input Specify reported inhibition for the compound shown: Cc1c(C(=O)NC2CC2)oc2ccc(S(=O)(=O)N3CCCCCC3)cc12
# output -102

# input Item O=C(COc1ccccc1)N1CCN(c2ncnc3c2cnn3-c2ccccc2)CC1 : provide inhibition
# output -4.4

# input For the compound CCCNc1nc(N2CCOCC2)nc(N2CCOCC2)n1 , report inhibition.
# output 3.6

# input Given the compound CCOC(=O)C1=C(C)Nc2nnnn2C1c1ccc(OC)c(Br)c1 (stereo not given) , write its reported inhibition.
# output 2.7

# input Tell us which inhibition value is on record for CCCCOc1ccc(S(=O)(=O)n2c(C)nc3ccccc32)cc1
# output -286

# input Identify the reported inhibition for the following entry. CCOC(=O)c1cnc(-n2cc(C)cn2)nc1Nc1ccccc1OC
# output 12.5

# input Answer with reported inhibition of CC(=O)Nc1ccc(OCC(O)Cn2nc(C)nc2C)cc1 (stereo not given)
# output -160

# input Please supply the value of reported inhibition for the item COc1ccc(C(CNC(=O)c2cc(C)oc2C)N2CCOCC2)cc1 (stereo not given)
# output -140

# input Provide only the value of recorded inhibition for COc1cccc(C(=O)N2CCCC(c3nc(-c4cccs4)no3)C2)c1 (stereo not given)
# output 22.9

# input For the compound CCN(CC)CCNC(=O)CCn1c(=S)[nH]c2cc3c(cc2c1=O)OCO3 , give its measured inhibition value.
# output 7.2

# input Note inhibition for the compound shown: Cc1nc2sc(C(c3cccc(F)c3)N3CCCCC3)c(O)n2n1 (stereo not given)
# output -5.7

# input Given Cc1ccccc1-c1nc(CS(=O)(=O)CC(=O)NCc2ccc3c(c2)OCO3)c(C)o1 , respond with its inhibition.
# output -6.5

# input Tell us which inhibition value is on record for CCOC(=O)c1cc2c(=O)n3ccccc3nc2n(CCCOC)c1=NC(C)=O
# output -33.6

# input Name the recorded inhibition of the item O=C(Nc1cnn(Cc2ccc(Cl)cc2Cl)c1)c1noc2c1CCCC2 in your answer.
# output -22.8

# input // Input: O=[n+]1c2c(n([O-])c3c1CCCC3)CCCC2 . Output its inhibition only.
# output 54.7

###

# TEST_NAME: TLR3 IRF3 reporter activation blockers – cell-based, poly I:C stimulus, luciferase, 10K MLSCN set, primary screen (AID 602277)
# MEASUREMENT_CONDITIONS: HEK293-TLR3 RL24 IRF3 luciferase reporter, at 10 µM, hits give high values
METRIC_NAME: inhibition (%)
Use % as the unit, but write only the number.

# input Supply recorded inhibition for C=CCSc1n[nH]c(-c2ccc(OC)cc2)n1 here.
# output -168

# input Recall and state the measured inhibition for CSCCC(NC(=O)c1ccco1)C(=O)OC(C)C(=O)NC(=O)NC1CCCCC1 (stereo not drawn) .
# output 20.3

# input Check the records and state inhibition for Cc1nnc(SCC(=O)N(C(C)C)C(C)C)nc1C
# output 8.25

# input Specify inhibition for CCOC(=O)C(NCc1ccccc1OC)(NC(C)=O)C(F)(F)F (stereo not drawn) and stop.
# output 4.4

# input Supply measured inhibition of COc1ccc(N2CCN(c3oc(COc4ccccc4Cl)nc3C#N)CC2)cc1 in your reply.
# output 15.7

# input Provide one value: measured inhibition of O=C(NCc1cccs1)C1CC(=O)N(c2ccccc2)C1 (stereo not drawn)
# output 4.93

# input # return recorded inhibition for input O=C(Nc1ccccc1C(=O)N1CCOCC1)C1COc2ccccc2O1 (stereo not drawn)
# output 11.6

# input # return recorded inhibition for input COc1ccc(CC(=O)Nc2c3c(nn2-c2cccc(Cl)c2)CS(=O)C3)cc1 (stereo not drawn)
# output 14.2

# input Give reported inhibition value for CC(CN1CCCCC1)OC(=O)c1ccc(Cl)cc1Cl (stereo not drawn)
# output -15.9

# input Give the value of inhibition reported for the following: CC(C)CCNc1cc(=O)n(C)c(=O)n1C
# output 8.23

# input Provide only the value of recorded inhibition for Fc1ccc(Cn2nnc(-c3ccc(CN4CCOCC4)cc3)n2)cc1
# output -37.2

# input Return the recorded inhibition value; entry: c1ccc2oc(SCc3cn4ccccc4n3)nc2c1
# output -151

# input Note inhibition for the molecule shown: CCCC(=O)Nc1cc(C)c(NC(=O)c2ccccn2)cn1
# output 11.8

# input Give the reported inhibition for this molecule. CCOc1nc(-c2ccccc2)ccc1-c1noc(-c2ccc(OC)c(OC)c2)n1
# output 9.49

# input Give the measured inhibition for CCOC(=O)C1CCN(S(=O)(=O)c2cccc(-c3csc(C)n3)c2)CC1
# output 2.04

# input Determine its reported inhibition: O=S(=O)(Nc1cccnc1)c1cc(Cl)ccc1Cl
# output 7.22

# input Answer with the recorded inhibition for the molecule listed here: O=C1C2C3C=CC(C3)C2C(=O)N1c1cccc(N2C(=O)C3C4C=CC(C4)C3C2=O)n1 (stereo not drawn)
# output 21.6

# input Identify measured inhibition corresponding to Cn1nc(C(=O)N2CCOCC2)c2ccccc2c1=O
# output 32

# input Supply recorded inhibition for COc1ccc(-c2cc(C(F)(F)F)n3nc(C(=O)N4CCOCC4)nc3n2)cc1 here.
# output 15.3

# input Give inhibition for the following molecule: CC12CCC(C(=O)N3CCCCC3)(CC1=O)C2(C)C (stereo not drawn)
# output 28.7

# input Provide only the value of recorded inhibition for O=C(NC1CCCC1)C(c1ccco1)N(Cc1ccccc1)C(=O)c1csnn1 (stereo not drawn)
# output 29.4

# input Dear colleague, please send me the reported inhibition for Cc1cccc(OCC(=O)N2CCN(C(=O)Cc3ccccc3)CC2)c1 when you can.
# output 16.6

# input Fill in reported inhibition for this entry: O=S(=O)(c1cccc2nsnc12)N1CCN(c2ncccn2)CC1
# output 31.3
